Biological target: mushroom tyrosinase (Agaricus bisporus, UniProt C7FF04)
Sequence (G1K3P4 entry or part of it): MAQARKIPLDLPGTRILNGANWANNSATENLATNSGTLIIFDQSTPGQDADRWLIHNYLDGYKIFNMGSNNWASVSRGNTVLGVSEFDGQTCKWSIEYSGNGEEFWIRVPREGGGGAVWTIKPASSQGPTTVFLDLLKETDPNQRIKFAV
Sequence (C7FF04 1-392): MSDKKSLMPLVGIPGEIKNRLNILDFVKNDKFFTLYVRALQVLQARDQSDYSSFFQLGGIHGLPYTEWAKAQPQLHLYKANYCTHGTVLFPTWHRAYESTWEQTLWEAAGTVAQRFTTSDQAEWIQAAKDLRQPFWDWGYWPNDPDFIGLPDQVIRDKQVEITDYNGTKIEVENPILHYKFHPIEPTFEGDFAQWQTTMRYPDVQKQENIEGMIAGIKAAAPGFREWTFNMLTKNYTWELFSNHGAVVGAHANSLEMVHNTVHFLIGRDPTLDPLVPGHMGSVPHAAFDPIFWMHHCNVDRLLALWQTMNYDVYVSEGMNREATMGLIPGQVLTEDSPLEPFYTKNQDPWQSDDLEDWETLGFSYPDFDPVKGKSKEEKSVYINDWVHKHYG
Test: Antityrosinase inhibition assay (L-tyrosine substrate, absorbance at 490 nm)
Type: biochemical
Settings: against L-tyrosine substrate
recorded endpoint: tyrosinase inhibitory activity (in words)

OC[C@H]1OC[C@H](O)[C@@H](O)[C@@H]1O [Compound 5, 1,5-anhydro-D-glucitol] ... weak activity
O=C(O)c1ccc(O)cc1 [Compound 6, 4-hydroxybenzoic acid] ... weak activity

All figures here come from paper PMC9269349.
